target: T1, recombinant human HGF (R&D Systems, Catalog No. 294-HGN-025) (human, UniProt P14210 32-728); assay: SPR, antibody captured by anti-mouse Ig, HGF injected, 25 C
T1 construct: Mature HGF is a disulfide-linked heterodimer of alpha and beta chain cut from one precursor; also called rhHGF (R&D Systems); rhHGF
T1 sequence (P14210 32-728 limits assumed): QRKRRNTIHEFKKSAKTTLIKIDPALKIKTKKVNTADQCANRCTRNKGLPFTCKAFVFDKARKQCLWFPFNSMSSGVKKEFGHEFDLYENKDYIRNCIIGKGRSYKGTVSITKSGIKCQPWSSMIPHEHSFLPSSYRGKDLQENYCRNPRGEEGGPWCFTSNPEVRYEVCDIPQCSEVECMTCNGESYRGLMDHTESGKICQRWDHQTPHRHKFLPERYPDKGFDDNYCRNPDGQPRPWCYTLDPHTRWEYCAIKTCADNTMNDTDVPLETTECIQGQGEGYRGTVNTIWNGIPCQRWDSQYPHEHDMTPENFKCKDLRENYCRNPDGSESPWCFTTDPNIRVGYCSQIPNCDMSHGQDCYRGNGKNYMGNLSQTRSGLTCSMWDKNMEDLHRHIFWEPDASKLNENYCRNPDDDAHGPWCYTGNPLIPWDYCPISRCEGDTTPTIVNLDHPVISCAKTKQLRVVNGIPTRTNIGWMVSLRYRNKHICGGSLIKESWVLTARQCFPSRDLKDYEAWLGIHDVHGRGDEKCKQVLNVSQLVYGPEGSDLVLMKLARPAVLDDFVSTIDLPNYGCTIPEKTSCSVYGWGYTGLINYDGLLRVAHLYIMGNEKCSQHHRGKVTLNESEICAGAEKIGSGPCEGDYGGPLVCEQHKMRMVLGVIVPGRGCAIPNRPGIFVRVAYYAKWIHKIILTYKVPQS
REPORTED_PROPERTY: pKd
Keep it numeric: pKd is minus log10 of the concentration in mol/L.

Requested read-out: pKd. Entry: anti-hHGF monoclonal antibody 1A3 (antibody, mouse IgG1, kappa, V domains shown, Murine IgG1 kappa from hybridoma) VH: EVQLVESGGGLVQPGGSLKLSCAASEFTFSNYYMSWVRQTPEKRLQWVAYISPGGGSSYYPASVKGRFTISRDNAKNTLYLQMSSLKSEDTAMYYCARQGDGYYGDYAMDYWGQGTSVTVSS VL: DIQMTQSPASLSVSVGETVTITCRASENIYSNLAWYQQKQGKSPQLLVYAATNLADGVPSRFSGSGSGTQFSLKINSLQSEDFGTYYCQHFWGTPYTFGGGTKLEIKR
10.52

Requested read-out: pKd. Entry: anti-hHGF monoclonal antibody 1F3 (antibody, mouse IgG1, kappa, V domains shown, Murine IgG1 kappa from hybridoma) VH: EVQLVESGGGLVQSGGSLKLSCAASGFTFSNYFMSWVRQTPEKRLEWVAYISSGGGSTYYPDSVKGRFTISRDNAKNTLYLQMSSLKSEDTAMYYCVRQGDGYYGDYAMDYWGQGTSVTVSS VL: DIQMTQSPASLSVSVGETVTITCRASENIYSNLAWYQQKQGKSPQLLVYDATHLPDGVPSRFSGSGSGTQFSLKINSLQSEDFGSYYCQHFWGTPYTFGGGTRLEIKR
10.74

Requested read-out: pKd. Entry: anti-hHGF monoclonal antibody 3A12 (antibody, mouse IgG1, kappa, V domains shown, Murine IgG1 kappa from hybridoma) VH: EVQLVESGGGLVQPGGSLKISCAASGFTFSNYFMSWVRQTPEKRLEWVAYISSGGGSTYYPDSVKGRFTISRDNAKNTLYLQMNSLKSEDTAMYYCVRQGDGYYGDYAMDYWGQGTSVTVSS VL: DIQMTQSPASLSVSVGETVTITCRASENIYINLAWYQQKQGKSPQLLVHAATKLADGVPSRFSGSGSGTQYSLKINSLQSEDFGSYYCQHFWGTPYTFGGGTKLEIKR
9.99

Requested read-out: pKd. Entry: anti-hHGF monoclonal antibody 3B6 (antibody, mouse IgG1, kappa, V domains shown, Murine IgG1 kappa from hybridoma) VH: QVQLQQSGAELVRPGSSVKISCKASGYVFSSYWMNWVKQRPGQGLEWIGQIYPGDGDSNYNGNFKGKATLTADKSSSTAYMQLSSLTSEDSAVYFCASQLGLRENYFDYWGQGTTLTVSS VL: DIKMTQSPSSMYASLGERVTITCKASQDIKSYLSWFQQKPGKSPKTLIYRVNRLVDGVPSRFSGSGSGQDSSLTITSLENEDMGIYYCLQYDEFPFTFGGGTKLEIKR
10.77

Requested read-out: pKd. Entry: anti-hHGF monoclonal antibody 1D3 (antibody, mouse IgG1, kappa, V domains shown, Murine IgG1 kappa from hybridoma) VH: EVQLVESGGGLVQPGGSLKLSCAASGFTFSDYYMSWVRQTPEKRLEWVAYISSGGGSTYYPDSVKGRFTISRDNAKNTLYLQMSSLKSEDTAIYYCVRQGDGYYGDYAMDYWGQGTSVIVSS VL: DIQMTQSPASLSVSVGETVTITCRTSENIYSNLAWYQQKQGKSPQLLIYAATNLADGVPSRFSGSGSGTQFSLRINSLQSEDFGRYYCQHFWGTPYTFGGGTKLEIKR
10.27
